Molecular target: Or5ar1 (Mus musculus) (UniProt Q8VGS3)
Sequence (whole entry): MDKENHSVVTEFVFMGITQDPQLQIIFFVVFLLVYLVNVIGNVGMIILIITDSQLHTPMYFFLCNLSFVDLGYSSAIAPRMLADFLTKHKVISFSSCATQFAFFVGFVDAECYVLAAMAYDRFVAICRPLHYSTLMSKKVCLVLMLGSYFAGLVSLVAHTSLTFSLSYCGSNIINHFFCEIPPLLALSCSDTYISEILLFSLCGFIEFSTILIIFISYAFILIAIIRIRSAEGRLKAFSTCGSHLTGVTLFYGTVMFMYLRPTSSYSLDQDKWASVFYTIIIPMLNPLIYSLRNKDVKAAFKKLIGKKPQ
Details: stereoisomer not certain
Pick one: active, inactive

Solved entries:
* C=CC(C)=CCC=C(C)CCC=C(C)C | inactive
* C=C1C2CCC(C2)C1(C)C (configuration not stated) | inactive
* O=C(O)CCCCCBr | inactive
* CCCC=O | inactive
* CCCCCCCCCCO | inactive
* CCCCCC(=Cc1ccccc1)C(OC)OC | active
* CC=Cc1ccc(OC)cc1 | inactive
* CCCCCCCCCCOC(C)=O | inactive

Lookup: Hi team, can someone confirm the assay call for C=C(C)C1CC=C(C)CC1 (configuration not stated) ?
Found: inactive

Lookup: Hi team, can someone confirm the assay call for O=c1ccc2ccccc2o1 ?
Found: inactive

Lookup: Hi team, can someone confirm the assay call for COc1nccnc1C(C)C ?
Found: inactive

Lookup: Hi team, can someone confirm the assay call for c1ccccc1 ?
Found: inactive

Lookup: Hi team, can someone confirm the assay call for CC(C)=CCCC(C)=CCOC(=O)C(C)C ?
Found: inactive

Lookup: Hi team, can someone confirm the assay call for CC(=O)Oc1ccccc1 ?
Found: inactive

Lookup: Hi team, can someone confirm the assay call for CC(C)CS ?
Found: inactive

Lookup: Hi team, can someone confirm the assay call for CCN(CC)CC ?
Found: inactive

Lookup: Hi team, can someone confirm the assay call for CCCCCCCCCCCO ?
Found: inactive

====

Molecular target: OR5M3 (Homo sapiens) (UniProt Q8NGP4)
Sequence (Q8NGP4 whole entry): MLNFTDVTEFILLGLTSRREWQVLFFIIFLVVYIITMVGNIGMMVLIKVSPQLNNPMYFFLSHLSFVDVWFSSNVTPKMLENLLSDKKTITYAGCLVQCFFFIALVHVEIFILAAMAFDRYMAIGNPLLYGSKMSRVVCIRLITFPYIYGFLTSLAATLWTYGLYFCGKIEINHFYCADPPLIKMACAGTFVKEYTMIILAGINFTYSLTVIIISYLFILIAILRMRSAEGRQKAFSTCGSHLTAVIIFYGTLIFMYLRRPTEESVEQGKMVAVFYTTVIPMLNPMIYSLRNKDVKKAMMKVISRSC
Conditions: stereoisomer not certain
Observable: odorant receptor agonist call

Here are 5 molecules together with their reported answers.
* CCCCCCOC(C)=O | inactive
* CC1=NC(C)C(C)S1 (stereo not drawn) | inactive
* CCCC1CCCC(=O)O1 (stereo not drawn) | inactive
* CCOC(=O)CC(C)C | inactive
* CCC=CCCC=CCO | inactive

Please give odorant receptor agonist call for each item listed below.
1. CCCCCCCC(C)=O
2. CCCCCCCC1CCCC(=O)O1 (stereo not drawn)

Found:
["inactive", "inactive"]

Please give odorant receptor agonist call for each item listed below.
1. COc1ccc(C)cc1O
2. CSSc1ccoc1C
3. C=CC(=O)CC=CCC
4. CCCCCCO

Found:
inactive
inactive
inactive
inactive

Please give odorant receptor agonist call for each item listed below.
1. Cc1occc1S
2. CC(C)CCCCCCCCCCC=O
3. CC(=O)c1ccc(C)cc1
4. CCCCC(C)CCC(=O)O (stereo not drawn)
5. CCC=CCCC=CC=O
6. CCCCC(CC)CCC(=O)O (stereo not drawn)
7. CC(=O)OCCc1ccccc1

Found:
inactive
inactive
inactive
inactive
inactive
inactive
inactive

====

Biological target: OR7A5 (Homo sapiens) (UniProt Q15622)
Sequence (Q15622 whole entry): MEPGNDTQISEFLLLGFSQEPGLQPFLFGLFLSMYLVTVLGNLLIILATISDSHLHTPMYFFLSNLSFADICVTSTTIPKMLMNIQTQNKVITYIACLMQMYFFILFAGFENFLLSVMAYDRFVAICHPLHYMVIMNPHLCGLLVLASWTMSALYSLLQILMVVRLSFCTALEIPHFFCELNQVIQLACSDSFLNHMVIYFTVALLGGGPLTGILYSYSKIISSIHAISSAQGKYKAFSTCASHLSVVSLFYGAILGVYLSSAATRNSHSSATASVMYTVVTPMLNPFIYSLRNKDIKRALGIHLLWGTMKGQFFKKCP
Conditions: stereoisomer not certain
Pick one: true (1) = active, false (0) = inactive

Solved entries:
* CCCCC(S)C(C)CO (centres undefined) | true (1)
* CCCCCC(S)C(C)CO (centres undefined) | false (0)
* Cc1cnc(C)c(C)n1 | false (0)
* CC1=C(O)C(=O)C(C)O1 (centres undefined) | false (0)
* CCCC(S)CCOC(C)=O (centres undefined) | false (0)

Lookup: Hi team, can someone confirm the assay call for CC1CCCCCCCCCCCCC(=O)C1 (centres undefined) ?
Found: false (0)

Lookup: Hi team, can someone confirm the assay call for CCC1OC(C)=C(O)C1=O (centres undefined) ?
Found: false (0)

Lookup: Hi team, can someone confirm the assay call for CC1=NC(C)C(C)S1 (centres undefined) ?
Found: false (0)

Lookup: Hi team, can someone confirm the assay call for CCC(S)C(C)CO (centres undefined) ?
Found: false (0)

====

Target: OR5K1 (Homo sapiens) (UniProt Q8NHB7)
Sequence (whole entry): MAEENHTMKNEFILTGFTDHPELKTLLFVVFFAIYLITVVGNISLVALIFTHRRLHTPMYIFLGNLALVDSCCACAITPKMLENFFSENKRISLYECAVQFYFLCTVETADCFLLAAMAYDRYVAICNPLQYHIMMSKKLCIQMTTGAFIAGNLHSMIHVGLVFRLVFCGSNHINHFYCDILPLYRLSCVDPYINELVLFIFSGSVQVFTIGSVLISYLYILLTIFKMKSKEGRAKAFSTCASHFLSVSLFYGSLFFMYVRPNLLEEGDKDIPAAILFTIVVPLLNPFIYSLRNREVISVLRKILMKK
Conditions: stereoisomer not certain
Pick one: active, inactive

Lookup: Hi team, can someone confirm the assay call for COc1nccnc1CC(C)C ?
Found: active

Lookup: Hi team, can someone confirm the assay call for CCOC(=O)C=Cc1ccccc1 ?
Found: inactive

Lookup: Hi team, can someone confirm the assay call for CC(=O)C=CC1=C(C)CCCC1(C)C ?
Found: inactive

====

Molecular target: OR5M3 (Homo sapiens)
Conditions: stereoisomer not certain
Observable: odorant receptor agonist call

Here are 5 compounds together with their reported answers.
- CCCCCC=CCCC=O: inactive
- CC(C)=CCCC(C)=CCO: inactive
- CCC(S)C(C)CO (stereo not drawn): inactive
- Cc1occc(=O)c1O: inactive
- CCCCC=CC=O: inactive

Please give odorant receptor agonist call for each item listed below.
1. CC(C)(S)CCOC=O
2. C=C1CCC2(C(C)C)CC12 (stereo not drawn)
3. CCCCC=CC=CC=O
4. COC1=C(C)OC(C)C1=O (stereo not drawn)
5. CCCCC(=O)OCC
6. CCCSSSC

Found:
1. inactive
2. inactive
3. inactive
4. inactive
5. inactive
6. inactive

====

Molecular target: OR1D4 (Homo sapiens) (UniProt P47884)
Sequence (P47884 whole entry): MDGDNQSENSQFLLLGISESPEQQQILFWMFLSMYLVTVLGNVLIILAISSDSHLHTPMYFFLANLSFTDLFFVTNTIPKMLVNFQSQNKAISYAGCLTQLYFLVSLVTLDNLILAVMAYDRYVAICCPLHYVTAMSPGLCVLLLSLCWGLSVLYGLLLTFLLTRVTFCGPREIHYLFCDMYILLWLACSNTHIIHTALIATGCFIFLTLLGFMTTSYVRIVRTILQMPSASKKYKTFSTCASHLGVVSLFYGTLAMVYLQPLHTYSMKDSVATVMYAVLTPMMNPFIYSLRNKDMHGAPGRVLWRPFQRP
Settings: stereoisomer not certain
Observable: odorant receptor agonist call

* CC(CO)CS (centres undefined) | inactive
* CCCCCC(=O)C(C)C(C)=O (centres undefined) | inactive
* CC(=O)c1c(C)c([N+](=O)[O-])c(C(C)(C)C)c([N+](=O)[O-])c1C | inactive
* CC1CCCCCCCCCCCCC(=O)C1 (centres undefined) | inactive

====

Biological target: UniProt Q8VH20
Sequence (Q8VH20 as listed by the source): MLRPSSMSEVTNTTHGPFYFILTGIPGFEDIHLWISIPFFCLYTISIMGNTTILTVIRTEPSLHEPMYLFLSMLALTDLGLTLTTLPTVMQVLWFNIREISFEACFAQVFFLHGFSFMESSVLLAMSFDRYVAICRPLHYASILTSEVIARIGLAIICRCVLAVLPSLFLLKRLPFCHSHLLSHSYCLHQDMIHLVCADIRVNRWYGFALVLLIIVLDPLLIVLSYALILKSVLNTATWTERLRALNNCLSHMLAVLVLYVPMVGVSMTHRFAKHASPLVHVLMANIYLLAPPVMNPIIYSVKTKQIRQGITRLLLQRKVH
Settings: stereoisomer not certain
Observable: odorant receptor agonist call

Here are 8 compounds together with their reported answers.
• CCC(=O)O = inactive
• CC(C)CS = inactive
• C=C(C)C1CCC(C)C(O)C1 (stereo not drawn) = inactive
• CCCCCC=O = inactive
• C=C(CC)CCCC(C)(C)O = inactive
• CC(C)CCN = inactive
• CCOC(=O)C(C)CC (stereo not drawn) = inactive
• C=CC(=C)CCC=C(C)C = inactive

Please give odorant receptor agonist call for each item listed below.
1. OCCCCCCCCCO
2. CCCCCCC(=O)OCCCC
3. COc1nccnc1C(C)C
4. CCCCCCO

Found:
1. inactive
2. inactive
3. inactive
4. inactive

Please give odorant receptor agonist call for each item listed below.
1. CCCCCCCOC(=O)C(C)C
2. CC(=O)C=CC1=C(C)CCCC1(C)C

Found:
inactive
inactive

Please give odorant receptor agonist call for each item listed below.
1. CCC=CCCC=CC=O
2. CC(C)=CCCC(C)=CCOC(=O)C(C)C
3. CCCCCCCCCC=CC=O
4. CCCCCCCCO

Found:
1. inactive
2. inactive
3. inactive
4. inactive

====

Target: OR1E1 (Homo sapiens)
Details: stereoisomer not certain
Observable: odorant receptor agonist call

Here are 6 molecules together with their reported answers.
• CCCCCC(S)C(C)CO (configuration not stated) = inactive
• CCC1OC(=O)C(O)=C1C (configuration not stated) = inactive
• CCCCCC(=O)C(C)C(C)=O (configuration not stated) = inactive
• Cc1cnc(C)c(C)n1 = inactive
• CCCCC(S)C(C)CO (configuration not stated) = inactive
• CCC1OC(C)=C(O)C1=O (configuration not stated) = inactive

Please examine the following record next.
Field odorant receptor agonist call (entry CCC(S)C(C)CO (configuration not stated) ) reads inactive

====

Target: OR5AN1 (Homo sapiens)
Conditions: stereoisomer not certain
Pick one: active, inactive

Solved entries:
* CC1C(C)(C)C2=C(C(=O)CCC2)C1(C)C (stereo not given) | inactive
* Cc1cnc(C)c(C)n1 | inactive
* CC1CCCCCCCCCCCC(=O)C1 (stereo not given) | active
* CCC(S)C(C)CO (stereo not given) | inactive
* CC1CC=CCCCCCCCCCC(=O)C1 (stereo not given) | active

Lookup: Hi team, can someone confirm the assay call for CCCCCCCC(=O)CCCCCCC ?
Found: inactive

Lookup: Hi team, can someone confirm the assay call for CC1CC=CCCCCCCCCC(=O)C1 (stereo not given) ?
Found: active

Lookup: Hi team, can someone confirm the assay call for CC1=C(O)C(=O)C(C)O1 (stereo not given) ?
Found: inactive

Lookup: Hi team, can someone confirm the assay call for CCCCC(S)C(C)CO (stereo not given) ?
Found: inactive

Lookup: Hi team, can someone confirm the assay call for CCCCCCC=CCCC=O ?
Found: inactive

Lookup: Hi team, can someone confirm the assay call for O=C1CCCCCC=CCCCCCCCCO1 ?
Found: active

Lookup: Hi team, can someone confirm the assay call for O=C1CCCCCCC=CCCCCCCC1 ?
Found: active

Lookup: Hi team, can someone confirm the assay call for O=C1C=CCCCCCCCCCCCCO1 ?
Found: active

Lookup: Hi team, can someone confirm the assay call for CCC(=O)OCC(C)(C)OC(C)C1CCCC(C)(C)C1 (stereo not given) ?
Found: inactive

Lookup: Hi team, can someone confirm the assay call for CC(=O)c1c(C)c([N+](=O)[O-])c(C(C)(C)C)c([N+](=O)[O-])c1C ?
Found: active
